Test system: NCI-H23 lung
Experiment: NCI-60 one-dose screen, 48 h (100 = growth as untreated, 0 = no growth, -100 = all killed)
Conditions: 10 µM unless noted
Compounds without any hit were thinned out: in the full panel of roughly 83,000, 20% have a hit.
Consider the following compounds; for each one, report its growth.
Answers are plain numbers, in %.

Previously resolved entries follow.
• COc1ccc2c(c1)C1(C)CCN(C)CC(C1)C2O (stereo not drawn) = 98.1
• CC[C@H](C)[C@H](NC(=O)[C@H]1CCCCN1C)C(=O)N(C)[C@H](C[C@@H](OC(C)=O)c1nc(C(=O)N[C@@H](Cc2ccccc2)C[C@H](C)C(=O)O)cs1)C(C)C = 25.9

// moving on: another record for growth
Consider the compound shown here: CCC(Br)(CC)C(=O)NC(N)=O What is its recorded growth?
108

Data credit: PubChem BioAssay (NCI)
